testProtocol: Functional assay to measure dose dependent changes in cell viability from drug treatment in Vero E6 miRFP670 cells (cotreated with P-gp inhibitor, CP100356) that are infected with Dengue virus type 2 New Guinea C. […] Cytotoxicity is reported via via analysis of DAPI count using high-content imager. The assay has been performed by KU Leuven.
Assay type: toxicity, cell-based, Vero C1008
experimentalContext: chlorocebus sabaeus, with CP100356 (P-gp inhibitor, concentration not stated); p-gp concentration 500 nM
Each record here notes measured CC50.

Worked examples follow.
INSERT INTO assay_data (compoundstructurestring, result) VALUES
  ('N[C@H]1Cc2ccc(NC(=O)c3cccc4c3CC(=O)N4)cc2C1', '> 50 µM'),
  ('O=C(Nc1ccc2c(c1)CNC2)c1cc(C(F)(F)F)cc2[nH]ccc12', '> 50 µM'),
  ('CNC(=O)[C@H](Nc1cc(CN)cc(C(=O)O)c1)c1cc(Cl)cc(C2CC2)c1', '> 50 µM'),
  ('N[C@H]1Cc2ccc(NC(=O)c3cc(Cl)cc4[nH]ncc34)cc2C1', '> 50 µM'),
  ('N#Cc1ccc(-c2nc3c(C(=O)Nc4ccc5c(c4)CNC5)cc(F)cc3[nH]2)cc1', '> 50 µM'),
  ('CC(C)CNC(=O)c1cc(Cl)ccc1NS(=O)(=O)c1ccc(Oc2ccccc2Cl)cc1', '> 10 µM');

Give a short answer stating reported CC50 for Cc1ccc(NC(=O)c2cc(Cl)cc3[nH]ncc23)cc1CN .
> 50 µM

Give a short answer stating reported CC50 for O=C(O)Cn1ncc2cc(-c3cc(Cl)cc(NC(=O)OCc4ccccc4)c3)ccc21 .
> 50 µM

Give a short answer stating reported CC50 for O=C(Nc1ccc2c(c1)CNC2)c1cc(F)cc2c1CCC2 .
> 50 µM

Give a short answer stating reported CC50 for O=C(NS(=O)(=O)C1CC1)c1cc(Cl)ccc1NS(=O)(=O)c1ccc(Oc2ccccc2Cl)cc1 .
> 50 µM

Give a short answer stating reported CC50 for O=C(NCc1cccnc1)[C@H](Nc1ccc2c(c1)CNC2)c1cc(Cl)cc2[nH]ncc12 .
> 50 µM

Give a short answer stating reported CC50 for C[C@@]1(O)[C@H](O)[C@@H](CO)O[C@H]1n1ccc(N)nc1=O .
> 200 µM

Give a short answer stating reported CC50 for CC(C)CNC(=O)c1cc(Cl)c(F)cc1NS(=O)(=O)c1ccc(Oc2ccccc2Cl)cc1 .
> 10 µM

Give a short answer stating reported CC50 for C[C@H]1C(=O)Nc2ccc(C(=O)Nc3ccc4c(c3)CNC4)cc21 .
> 50 µM

Give a short answer stating reported CC50 for CCCC[C@H](NC(C)=O)C(=O)N[C@H](C(=O)NCc1ccc(C(N)=O)cc1)c1ccc(OCc2ccccc2)cc1 .
> 10 µM

Give a short answer stating reported CC50 for CC[C@@H](Cc1nnn[nH]1)c1ccc(NC(=O)c2cc(Cl)cc(NC(=O)OCc3ccccc3)c2)cc1 .
> 50 µM

Give a short answer stating reported CC50 for O=C(Nc1cc(Br)c2c(c1)CNC2)c1cc(F)cc2[nH]ncc12 .
> 50 µM

Values from ChEMBL document CHEMBL5661955
